Provenance of the data: paper PMC10716038

# TARGET DESC: T1, THD1 K403A (UniProt P26039 1-405, K403A)
# T1 construct: talin-1 (TLN1) head domain, residues 1-405, K403A; source: E. coli (DE3) Rosetta 2, purified (IMAC, SEC); not shown: His10-SUMO, N-terminal, cleaved
# T1 sequence (P26039 1-405 K403A): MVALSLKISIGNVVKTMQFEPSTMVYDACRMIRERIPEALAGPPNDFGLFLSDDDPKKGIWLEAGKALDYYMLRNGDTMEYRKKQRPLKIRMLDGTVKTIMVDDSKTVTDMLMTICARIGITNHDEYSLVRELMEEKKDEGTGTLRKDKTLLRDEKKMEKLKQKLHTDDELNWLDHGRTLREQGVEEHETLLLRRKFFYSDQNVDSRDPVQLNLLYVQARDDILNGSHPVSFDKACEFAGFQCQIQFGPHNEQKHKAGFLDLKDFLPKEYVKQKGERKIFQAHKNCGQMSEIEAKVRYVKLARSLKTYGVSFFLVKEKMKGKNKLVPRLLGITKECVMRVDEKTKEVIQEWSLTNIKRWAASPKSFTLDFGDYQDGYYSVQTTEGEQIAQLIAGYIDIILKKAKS
# ASSAY EXPLANATION: MST; unlabelled protein titrated to 50-200 nM ATTO 488-labelled β-CT peptide, no third protein; 20 mM Tris pH 7.5, 200 mM NaCl, 1 mM TCEP, 0.05% Tween-20; Kd of individual titrations (in S0002 mean and sd, n = 2)
# ASSAY CONTEXT: both partners purified
No end group written: not given here.
MEASURED PROPERTY: pKd
Answers are plain numbers, as −log10 of the molar value.

**Q:** Given the entry {ATTO 488}-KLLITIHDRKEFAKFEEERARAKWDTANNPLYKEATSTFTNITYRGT (peptide, UniProt O54890 741-787, looked up, integrin β3 cytoplasmic tail (β3-CT); source: synthetic peptide (MPIB Core Facility)) [ATTO 488-labeled integrin β3 cytoplasmic tail (488–β3-CT)] , report its measured pKd.
**A:** 4.17
